Origin of the recorded values: the supplement of paper PMC11417369

system: PfAP2-G AP2 domain (GST-tagged); experiment: gcPBM binding intensity (ln(normalized median fluorescence intensity)); higher = stronger DNA binding
In all, about 25,000 sequences were measured (“ln(normalized median fluorescence intensity)”: median about 10, highest 2% from about 12 on). This is one part of a sample in which the highest values are shown more often than they occur.
ASSAY READOUT: gcPBM binding intensity (ln)

// solved cases for gcPBM binding intensity (ln) follow
[
  {
    "RECORD SEQUENCE": "TATATATATATATTGACACACATGTATTTCAATATT [CACACA_site2832]",
    "ENDPOINT VALUE": 10.1
  },
  {
    "RECORD SEQUENCE": "TTAGTAGTATTATGTAGTACATAATTATCATATCAT [XGTACX_site817]",
    "ENDPOINT VALUE": 11.6
  },
  {
    "RECORD SEQUENCE": "TCTTAAAATCGGAAATGAAATAAAGTTTACAATATG [TGCATGCA_negctrl_site553]",
    "ENDPOINT VALUE": 9.87
  },
  {
    "RECORD SEQUENCE": "AACAGACATAGACACACACACATATATTTATTTATA [CACACA_site7571]",
    "ENDPOINT VALUE": 10.1
  }
]

// switching to the query sequence
Query :: Recall and state the measured gcPBM binding intensity (ln) for AATTATATAAGCCACGCATGTGTGCATAAAAATACA [TGCATGCA_site114] .
Result :: 10.2
